Biological target: T1, 4H428-AA
T1 chain: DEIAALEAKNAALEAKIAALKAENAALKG
Assay: two-hybrid library CCmax;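 note: natural log of median RNA to DNA barcode read ratio; higher means stronger binding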
Settings: mean of both orientations
parameter: interaction score

See these solved cases before continuing.
{"binder": "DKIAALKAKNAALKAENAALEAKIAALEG [4H3029-AA]", "interaction score": -1.74}
{"binder": "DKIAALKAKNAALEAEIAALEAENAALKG [4H2948-AA]", "interaction score": 1.95}
{"binder": "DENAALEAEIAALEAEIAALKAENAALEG [4H1035-AA]", "interaction score": -1.35}

a: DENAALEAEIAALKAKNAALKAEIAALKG [4H1146-AA]
b: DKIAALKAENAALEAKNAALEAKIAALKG [4H2742-AA]
Q: Kindly identify the item with the lower interaction score figure among these two: a and b Give the chosen item's label as your response.
Result: b
(b: -1.6, a: -0.861)
